Reference for the values: PubChem BioAssay AID1845198

tested on: 425362-245-T-J1 tumor spheroids, viability % test/control; assay: Anticancer human tumor 425362-245-T-J1 patient-derived melanoma cell line growth inhibition; settings: second compound 0.003 µM; first compound 0.00949 µM; spheroids with HUVEC and MSC; active means viability on the fitted dose curve at most 10% of control; inactive means the rest;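 further: spheroids exposed to agents for 7 days; 100% = DMSO vehicle control viability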
Your reply should match one of these outcome classes. yes (1) for active, no (0) for inactive

Asked: State the result this test recorded for CNCc1ccc(-c2cc(-c3nc(-c4ccc(S(=O)(=O)C(C)C)cc4)cnc3N)on2)cc1 + COc1cc2c(cc1O)CCNC21CSC2c3c(OC(C)=O)c(C)c4c(c3C(COC1=O)N1C(O)C3Cc5cc(C)c(OC)c(O)c5C(C21)N3C)OCO4 .
Given back: yes (1)

Asked: State the result this test recorded for Cn1ncnc1[C@H]1c2n[nH]c(=O)c3cc(F)cc(c23)N[C@@H]1c1ccc(F)cc1 + CC[C@@]1(O)C(=O)OCc2c1cc1n(c2=O)Cc2cc3c(CN(C)C)c(O)ccc3nc2-1 .
Given back: no (0)

Asked: State the result this test recorded for Cn1ncnc1[C@H]1c2n[nH]c(=O)c3cc(F)cc(c23)N[C@@H]1c1ccc(F)cc1 + COc1cc2c(cc1O)CCNC21CSC2c3c(OC(C)=O)c(C)c4c(c3C(COC1=O)N1C(O)C3Cc5cc(C)c(OC)c(O)c5C(C21)N3C)OCO4 .
Given back: yes (1)

Asked: State the result this test recorded for Cc1sc2c(c1C)C(c1ccc(Cl)cc1)=NC(CC(=O)Nc1ccc(O)cc1)c1nnc(C)n1-2 (stereo unspecified) + COc1cc2c(cc1O)CCNC21CSC2c3c(OC(C)=O)c(C)c4c(c3C(COC1=O)N1C(O)C3Cc5cc(C)c(OC)c(O)c5C(C21)N3C)OCO4 .
Given back: yes (1)

Asked: State the result this test recorded for Cc1sc2c(c1C)C(c1ccc(Cl)cc1)=NC(CC(=O)Nc1ccc(O)cc1)c1nnc(C)n1-2 (stereo unspecified) + CC[C@@]1(O)C(=O)OCc2c1cc1n(c2=O)Cc2cc3c(CN(C)C)c(O)ccc3nc2-1 .
Given back: no (0)

Asked: State the result this test recorded for CNCc1ccc(-c2cc(-c3nc(-c4ccc(S(=O)(=O)C(C)C)cc4)cnc3N)on2)cc1 + CC[C@@]1(O)C(=O)OCc2c1cc1n(c2=O)Cc2cc3c(CN(C)C)c(O)ccc3nc2-1 .
Given back: no (0)
